Entry source: ChEMBL document CHEMBL3433997

- system: Solute carrier family 2, facilitated glucose transporter member 1 (Homo sapiens)
- assay_notes: ST_JUDE_LEISH: Cytotoxicity at 2uM final concentration against transgenic Leishmania Mexicana promastigotes LmGLUT1 that are glucose transport deficient and complemented with the human glucose transporter GLUT1. Activity is measured by DNA content using SYBR green in vitro
- Assay type: functional
measure: inhibition (%)
Give a bare numeral; the unit % is implied.

Exercise: // lookup inhibition | system=Solute carrier family 2, facilitated glucose transporter member 1 (Homo sapiens) | key= `CN(C)Cc1ccc(-c2ccc3c(Nc4ccc(Oc5ccccc5)cc4)ccnc3c2)o1`
Key: 0.83

Exercise: // lookup inhibition | system=Solute carrier family 2, facilitated glucose transporter member 1 (Homo sapiens) | key= CC1(CCc2ccccc2)N=C(N)N=C(N)C1c1ccc(Cl)c(Cl)c1 (stereo not given)
Key: 9.55

Exercise: // lookup inhibition | system=Solute carrier family 2, facilitated glucose transporter member 1 (Homo sapiens) | key= `O=S(=O)(c1c(Cl)cccc1Cl)N1CCCCC(c2ccc(C(F)(F)F)cc2)=N1`
Key: 2.16

Exercise: // lookup inhibition | system=Solute carrier family 2, facilitated glucose transporter member 1 (Homo sapiens) | key= `O=C(Nc1cccc(OC2CCN(Cc3ccc(F)cc3)CC2)c1)c1ccc(C(F)(F)F)cc1`
Key: 0.28

Exercise: // lookup inhibition | system=Solute carrier family 2, facilitated glucose transporter member 1 (Homo sapiens) | key= `COc1cccc(-c2cc(C(=O)Nc3ccc4[nH]c(-c5ccccc5)nc4c3)[nH]n2)c1`
Key: 4.77

Exercise: // lookup inhibition | system=Solute carrier family 2, facilitated glucose transporter member 1 (Homo sapiens) | key= `COc1cc(C(=O)NC2CC(C)(C)N(C)C(C)(C)C2)ccc1-c1cc2cc(Cl)c(Cl)cc2[nH]1`
Key: 1.97

Exercise: // lookup inhibition | system=Solute carrier family 2, facilitated glucose transporter member 1 (Homo sapiens) | key= `CCOc1cc2ncnc(Nc3ccc(OCc4ccccc4F)c(Cl)c3)c2cc1OCC`
Key: -0.1

Exercise: // lookup inhibition | system=Solute carrier family 2, facilitated glucose transporter member 1 (Homo sapiens) | key= `COc1cc(Cc2cnc(N)nc2N)cc(OCCCN2C(=O)c3ccccc3C2=O)c1OC`
Key: 4.68

Exercise: // lookup inhibition | system=Solute carrier family 2, facilitated glucose transporter member 1 (Homo sapiens) | key= Cc1ccc(OC2CCN(CCCCC3(C)C(=O)Nc4ccccc43)CC2)cc1 (stereo not given)
Key: 4.24

Exercise: // lookup inhibition | system=Solute carrier family 2, facilitated glucose transporter member 1 (Homo sapiens) | key= `Cc1onc(-c2c(F)cccc2Cl)c1C(=O)Nc1ccccc1I`
Key: 2.35
